system: K4 kissing-loop RNA reporter; assay: apparent KD of K4 kissing-loop reporter; higher = weaker reporter binding; settings: Eterna round: R107; input ligand: FMN 200 uM;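 further: bound reporter read as fluorescence of individual clusters on recovered sequencing chips by microscopy, with normalized cluster intensities fitted with a binding model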
Where apparent KD of K4 kissing-loop reporter equals or exceeds 300 nM, the correct label is MET; where it does not, the label is NOT MET.

Below are worked cases with known answers.
| sequence input | measured target | class label |
| --- | --- | --- |
| GGGCGUGGCGCGGCCGCCACUGGGCCUGGGUGCUCGCUGAGUGAUGUUCGUCGGCGGUUGGGUCGUAGGACCGGGUGCUGGUUGG [BDazzled - #9 SS Tryptophan B] | K4 kissing-loop RNA reporter | MET |
| AAAAUAAGCCAGUGAUGUUGGUGUCCAGAUACCAGCGACGAAAGUCGCCCUUGGCAGCUGUGGACGUACAAAAUAAGUACGUCCU | K4 kissing-loop RNA reporter | MET |
| GCGCGGCUCAGUGAUGUUGAGCCUCGGAGACGAGGACCGGUACGGCCGCCACUCGUCCGCGCAGCUGAGGCAAAAGCCUCGGCAA [Omei KL Tryp A SS B v3] | K4 kissing-loop RNA reporter | NOT MET |
| UCCGAGCUUAUUGAUACCAGUUCGGCGAGCUACUAGAGUGAUGUUCUUGUAAGCGUACACAACCCUUGGCAGCAAUAGAGGAGGU [theeternabot_sameState_KL_Theo_B_37] | K4 kissing-loop RNA reporter | NOT MET |
| CAUUCGAAAUGCAGUGAUGUUGCAACUGAUACCAGUAUCGAAAGAUACCCUUGGCAGCGGAAAACCGCUACGUAUUUUUUGAAUG [Ex Theophylline A K4 25] | K4 kissing-loop RNA reporter | NOT MET |
| AACUGUCAAGGACAACAUUACUGCAGUGAUACCAGCAUCGAAAGAUGCCCUUGGCAGCACCAACUUGCAGUGAUGUUGCAAGUAA [BrourdMod 5 - Jieux - Exclusion - Theophylline A] | K4 kissing-loop RNA reporter | NOT MET |

Is the recorded value of apparent KD of K4 kissing-loop reporter equal to or greater than 300 nM for this sequence? CUUAUGGAGUGUCGUACCGGACACUGGGAAGGAGCGCAAUUCUUUGCAGGUAGGUCGCCCAGUGAUGUUGGGUGGCGCUGUCGAA [Xebeor]
NOT MET

----------
test system: MS2 coat protein; assay: apparent KD of MS2 coat protein; designed switch direction (-1 OFF switch, 1 ON switch): 1; higher = weaker reporter binding; conditions: input ligand: none
Where apparent KD of MS2 coat protein equals or exceeds 100 nM, the correct label is YES; where it does not, the label is NO.

Is the recorded value of apparent KD of MS2 coat protein equal to or greater than 100 nM for this sequence? AGACACAUGAGGAUCACCCAUGUUACGAGCUUAGCUCGGACACAGGAUAUCCGGUCCUAGAGACCGGAGAAGGGUGCCUGAUAA [Zara MOD3] (Eterna round: R96, puzzle: Same State NG 3)
YES

Is the recorded value of apparent KD of MS2 coat protein equal to or greater than 100 nM for this sequence? ACAUGACAUGAGGAUCACCCAUGUCGAUAAAAGCAAGGAUAUGGGCCCGAGUCGUUCGGACCAGAAGGUGCGUCUC [Orso] (Eterna round: R96, puzzle: Same State 1)
NO

Is the recorded value of apparent KD of MS2 coat protein equal to or greater than 100 nM for this sequence? CCGAUGCAAAUAAAACAUGAGGAUCACCCAUGUGAGACACAUGAGGAUAUGCAGGUCAAAGACUUGCAGAAGGCAUAGCGUCGG [JL SSNG3 3.87] (Eterna round: R96, puzzle: Same State NG 3)
YES

Is the recorded value of apparent KD of MS2 coat protein equal to or greater than 100 nM for this sequence? GCCAUCGCAUGAGGAUAUGGCACCGUUUCGGUGCCAGAAGGCAUGUCGUAAGACAUGAGGAUCACCCAUGUAGUUAAGAUGGCA [JL Fiskers NG1ss - 33 mod 8] (Eterna round: R96, puzzle: Same State NG 1)
YES

Is the recorded value of apparent KD of MS2 coat protein equal to or greater than 100 nM for this sequence? UUGAGAUGUACAGGAUAUGGUGAGGAUCACCCACUAGAAGGGUGCACAUGUGAAUCGGACAUGAGGAUCACCCAUGUAGGGCGU (Eterna round: R96, puzzle: Same State NG 1)
YES

Is the recorded value of apparent KD of MS2 coat protein equal to or greater than 100 nM for this sequence? CUCCGGAUUGACAUGAGGAUCACCCAUGUGCCCUCAUUAAAGUAGGAUAUACCUCGCAGUCGGGAGUAGAAGGACUUUAUGAGU [Eternabot solution 36] (Eterna round: R96, puzzle: Same State NG 3)
YES

Is the recorded value of apparent KD of MS2 coat protein equal to or greater than 100 nM for this sequence? GUUACAUGAGGAUCACCCAUGUAUGUGUGGGAGUAAGUGUCUUAGGAUAUCUAUCAUUUGAUUUAAGAGAAGGAAGAUUGUUGU [JMF's solution 94] (Eterna round: R96, puzzle: Same State NG 3)
YES

Is the recorded value of apparent KD of MS2 coat protein equal to or greater than 100 nM for this sequence? CCAGCUUCGGCAGGAUAUGGCGCGCCACUACGCCCAGAAGGGCCGGAAGAUACUACAACCACUACAUGAGGAUCACCCAUGUCA [Eternabot solution 1] (Eterna round: R96, puzzle: Same State NG 1)
NO

Is the recorded value of apparent KD of MS2 coat protein equal to or greater than 100 nM for this sequence? UUGAAGAAUUAAGGAUAUCGAGUACAUAUGUUUAACAUGAGGAUCACCCAUGUGGGUUGCGGUAUCGAGAAGGUAAAUUACAAG [JL SSNG2 1.43] (Eterna round: R96, puzzle: Same State NG 2)
NO

Is the recorded value of apparent KD of MS2 coat protein equal to or greater than 100 nM for this sequence? AAUCAACGCCGAGGAUAUCGGCCUACAUGAGGAUCACCCAUGUUGGGACAUAAAUUAAUCUCGGCUGAGAAGGCGGGAGUUGAC [Eternabot solution 38] (Eterna round: R96, puzzle: Same State NG 2)
NO

Is the recorded value of apparent KD of MS2 coat protein equal to or greater than 100 nM for this sequence? CGUAGGUAGCUGGAGGAUAUUCGAGUGGUAACAUGAGGAUCACCCAUGUGGUGAGAGGAACAUGAGGAGAAGGCUAGCUGCCUGC [JL-ss2-3.15 JL mod] (Eterna round: R96, puzzle: Same State 2)
YES

Is the recorded value of apparent KD of MS2 coat protein equal to or greater than 100 nM for this sequence? GGUGGGUUACUACCAACACAUGAGGAUCACCCAUGUUUUGGGAAGGAUAUGGUACCUAUUUGGUACCAGAAGGUCCAGUUGGUG [salish99_SSNG3_r04_703] (Eterna round: R96, puzzle: Same State NG 3)
YES

----------
tested on: MS2 coat protein; experiment: apparent KD of MS2 coat protein; designed switch direction (-1 OFF switch, 1 ON switch): 1; higher = weaker reporter binding; conditions: input ligand: FMN 200 uM
Where apparent KD of MS2 coat protein equals or exceeds 200 nM, the correct label is t; where it does not, the label is f.

| sequence input | class label |
| --- | --- |
| GGAGCCAAGGCAGGAUAUUCAUAUUAAAUACAUGAGGAUCACCCAUGUUAGGCCAGAAGGCCUUGGGAGAAGGGCCAUGGCUCG [Xeonanis - 13 mod20] (Eterna round: R96, puzzle: Same State NG 2) | f |
| GGAGCCGGCCUAGGAUAUUUCAUGAAAAAACAUGAGGAUCACCCAUGUAGGCCAGAAGGCCUUGGGAAGAAGGAGGUCGGCUCC [Loop Effect - G24] (Eterna round: R96, puzzle: Same State NG 2) | f |
| UUCACCUUUUUUAACAUGAGGAUCACCCAUGUAUAUUGUACGUAGGAUAUCGAUGCUUUUUUUUUCGAGAAGGACGAUGUAAGU [JR_SSND3_Sub051] (Eterna round: R96, puzzle: Same State NG 3) | f |
| AUUAUUUAUGCAGGAUAUGAUUAACAUGAGGAUCACCCAUGUGGUGUUGUGAGUAAGGAGAGUGAUCAGAAGGGCAUUAUUUUU [JMF's solution 45] (Eterna round: R96, puzzle: Same State NG 2) | t |
| CGCGGCAAGGAAGGAUAUGGGACGAAAACGUACCUAGAAGGUCCACAUGAGGAUCACCCAUGUACCAAGAAAACCGCUAAAUUA [Atceorer] (Eterna round: R96, puzzle: Same State NG 1) | f |

Is the recorded value of apparent KD of MS2 coat protein equal to or greater than 200 nM for this sequence? GCUCGUAUGAUGACCGACAUGAGGAUCACCCAUGUGUGUCGGUAGGAUAUCUAUAUUAAGGAUAUAGAGAAGGGCCGAACGAGC [SameState NG3 #17] (Eterna round: R96, puzzle: Same State NG 3)
f

Is the recorded value of apparent KD of MS2 coat protein equal to or greater than 200 nM for this sequence? GCCAUCGCAUGAGGAUAUGGCACCGUUUCGGUGCCAGAAGGCAUGUCGUAAGACAUGAGGAUCACCCAUGUAGUUAAGAUGGCA [JL Fiskers NG1ss - 33 mod 8] (Eterna round: R96, puzzle: Same State NG 1)
t

Is the recorded value of apparent KD of MS2 coat protein equal to or greater than 200 nM for this sequence? GGCGUAUAAACAUGAGGAUCACCCAUGUUGCGGAGACGCAAUGAGGAUAUCGAUGGGUUUCCCGUCGAGAAGGCGUGGGUCGCC [JL SSNG3 3.95] (Eterna round: R96, puzzle: Same State NG 3)
f

Is the recorded value of apparent KD of MS2 coat protein equal to or greater than 200 nM for this sequence? AGCCGAGACUGAGGAUAUUUUAAUCUACAUGAGGAUCACCCAUGUAACAACACGUGGUAGUGAUAGAAGAAGGCGGCUCGGCGC [Omei SS(NG)2 Cv1] (Eterna round: R96, puzzle: Same State NG 2)
f

Attribution: the supplement of paper PMC9170038
